EXPERIMENTAL TARGET: T1, RSV F B N201S (RSV B)
T1 construct: whole, on cells
PROCEDURE DETAILS: FACS, % binding to RSV F B variants
Quick reference for % binding among some binders
The answer is to be given in %; state only the numeric part.

Reference set, count: 2
binder="MPK201-v4.1 (antibody, V domains shown) VH: QVQLVQSGAEVKKPGESLKISCQGSGYSFISYWIGWVRQKPGKGLEWMGIIYPFDSETKYSPSFQGHVTFSADKSINTAYVQWSSLRASDTAMYYCARFTFGLAVTTADVSGEGQAFEIWGQGTMVTVSS VL: EIVMMQSPATLSVSPGERATLSCRASQSVAGNLAWYQQRPGQAPRLLVYGASTRASGVPARFSGSGSETEFTLTISSLQSEDFAVYYCHHYSDWPQAFGQGTRLDIK" value_type="% binding" endpoint_result=33
binder="MPK176-v4.3 (antibody, V domains shown) VH: QVQLVQSGAEVKKPGASVRVSCKASGYTLTAYGISWVRQAPGQGLEWMGWISPKHGSTHYAQRFQGRVTMTTDTSTSTAYMELRSLRPDDTAVYFCAREGVDIMAVPWYFDYWGQGTLVAVSS VL: SYVLTQPPSVSVAPGQTARISCGGNNIGSKSVHWYQQKPGQAPVVVVYDDSKRPSGIPERFSGSNSGNTATLTISGVEAGDEADYFCQVWDSATDHWVFGGGTKLTVL" value_type="% binding" endpoint_result=60.6

# % binding of MPK65-v2-v1.2 (antibody, V domains shown) VH: QVPLVQSGAEVKKPGESLKISCKGSGYSFINYWIGWVRQMPGKGLEWMGVIYPFDSDTKYSPSFQGHVTISADKSSNTAYVQWSSLKASDTAMYYCARFTFGIAVVTDDVSGEGQAFEIWGQGTMVTVSS VL: QIVMMQSPATLSVSPGERATLSCRASQSVAGNLAWYQQRPGQAPRLLIYGASTRATGVPARFSGSGSETEFTLTISSLQSEDFAVYYCHQYSNLPQAFGQGTRLDIK = 35.9
